- System: SNB-75
- ASSAY_REMARKS: NCI tumour cell line growth inhibition, 48 h
The source made the active and inactive calls. Rule as the data show it: active = GI50 up to about 1.1 µM and inactive = higher.
# valid calls are active, inactive; nothing else

- COMPOUND: "C[C@]12CCC3[C@@H](CC[C@@H]4c5nonc5CC[C@]34C)C1C/C(=N/O)C2=O (stereo partly specified)"
  LABEL_CLASS: "active"
- COMPOUND: "COc1ccc(C2S/C(=C\\c3ccc(O)cc3)C(=O)N2NC(=O)Cc2ccccc2)cc1 (stereo unspecified)"
  LABEL_CLASS: "inactive"
- COMPOUND: "CC1=C(Cl)C[C@@H](/C(C)=C\\Cl)O[C@@]1(O)C(Br)Br"
  LABEL_CLASS: "inactive"

input: Call for entry C=C(C(=O)OC)N1C(=O)CC(C)C1=O (stereo unspecified) :
output: inactive
